- Tested on: MDA-MB-231 breast
- TEST_DESCRIPTION: NCI-60 one-dose screen, 48 h (100 = growth as untreated, 0 = no growth, -100 = all killed)
- CONDITION: 10 µM unless noted
- Procedure: Cells are grown in 96 well plates and exposed to the test compound for 48 hours. Compounds are tested at a single concentration, which is 10^-5 M for most compounds. The reported endpoint is percent growth (GI% or GIPRCNT), where numbers from 0 - 100% represent growth inhibition, and numbers from -100% - 0 represent cell death. For example, a value of 40 represents 60% growth inhibition. A value of 0 means no net growth occurred over the course of the experiment. […]
The panel holds about 83,000 compounds, 20% with a hit somewhere; the sample as a whole holds those more often.
REPORTED_PROPERTY: growth (%)

Cc1cnc(C(=O)Nc2nc3ccc(S(=O)(=O)Nc4ccc(C(C)(C)C)cc4)cc3[nH]2)cn1 : 30.6
Cc1ccc(/C=N/NC(=O)CSc2nc3ccccc3c(=O)n2Cc2ccc(S(N)(=O)=O)cc2)cc1 : 89.7
Cn1cc(CC2CC(=O)N(c3ccccc3)C2=O)sc1=NC(=O)c1ccccc1 (stereo unspecified) : 111
Cc1ccc(-c2[nH][nH]c(=O)c2-c2nc3ccccc3s2)cc1 : 99.1
CCCCCC(=O)Oc1ccc(/C(=C(\C)c2ccccc2)c2ccc(OCCN3CCCCC3)cc2)cc1 : 95
CC(=O)c1cc2c(N)c(C(=O)Nc3cccc4ccncc34)sc2nc1C : 93
O=C(CCN1CCCC1)c1ccc([N+](=O)[O-])cc1 : 102
COC1=CC(=O)c2ccccc2C1=O : 99.1
OC(c1ccc(F)c(C(F)(F)F)c1)c1cnccc1NC1CCCCC1 (stereo unspecified) : 55.2
OCc1cnccc1NCCCOc1ccccc1 : 88.6
Cc1ccc(NC(=O)Cc2ccc(/C=C/C(=O)c3ncc[nH]3)cc2)cc1 : 56.6
